- Test system: NCI-H460 cells
- PROTOCOL TEXT: Proliferation assay (Method 3), NCI-H460
- Assay type: cell-based
- CONDITION SET: NCI-H460, 96 h; human non-small cell lung carcinoma, 4 days, crystal violet; read-out: Inhibition of NCI-H460 cell proliferation IC50
RESULT TYPE: IC50 (nM)

Below are worked cases with known answers.
Entry CS(=O)(=O)Cc1ccnc(Nc2cc(-c3ccc(F)c4ccoc34)c(F)cn2)c1 [Example 1] ; assay system NCI-H460 cells; IC50 recorded at 37

Tested on NCI-H460 cells: CS(=O)(=O)Cc1ccnc(Nc2cc(-c3cccc4ccoc34)c(F)cn2)c1 [Example 5] . Observed IC50: 91

GET /values?item= Cc1cc(CS(C)(=O)=O)cc(Nc2cc(-c3ccc(F)c4ccoc34)c(F)cn2)n1 [Example 3] &system= NCI-H460 cells returns IC50: 19

(P) CS(=O)(=O)Cc1cc(Nc2cc(-c3ccc(F)c4ccoc34)c(F)cn2)nc(C(F)(F)F)c1 [Example 4]
(Q) CS(=O)(=O)Cc1cc(F)nc(Nc2cc(-c3ccc(F)c4ccoc34)c(F)cn2)c1 [Example 2]
Please compare: P and Q . Report which one has the smaller IC50 value. Please respond with the label that marks your chosen entry.
P
(P: 33 nM, Q: 48 nM)

Reference for the values: patent US9856242B2
